These entries and their values trace back to the supplement of paper PMC9694430.

Each entry below carries its reported thermal shift delta Tm.
Tested on: LOC_OS01G02750-cb003
Assay: thermal shift delta Tm vs DMSO control; higher = stronger stabilization (binding);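 further: purified Escherichia coli-expressed rice kinase domain construct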
Conditions: 12.5 µM; protein concentration 2 µM
Measurement Label: thermal shift delta Tm (°C)

1) CNC(=O)c1ccc(-c2cnc3ncc(Cc4ccc5ncccc5c4)n3n2)cc1F :: 0.51
2) Cc1ccc(S(=O)(=O)/C=C/C#N)cc1 :: -1.35
3) Cc1cnc(Nc2ccc(N3CCN(C)CC3)cc2)nc1Nc1cccc(S(=O)(=O)NC(C)(C)C)c1 :: 0.29
4) Nc1cccc(S(=O)(=O)N2CCCN(S(=O)(=O)c3ccc4c(c3)OCCO4)CC2)c1 :: 1.98
5) Cc1cc([C@@H](C)Nc2ccccc2C(=O)O)c2nc(N3CCOCC3)cc(=O)n2c1 :: 1.55
6) CCN(C)S(=O)(=O)Nc1ccc(F)c(C(=O)c2c[nH]c3ncc(-c4cnc(C5CC5)nc4)cc23)c1F :: 0.92
7) Cc1ccc(C(=O)Nc2cccc(C(F)(F)F)c2)cc1Nc1nc(-c2cccnc2)nc2c1cnn2C :: 7.19
8) CC(C)N(CCC(=O)c1ccc2ccccc2c1)Cc1ccccc1 :: -5.16
9) COc1cc(Nc2c(C#N)cnc3cc(OCCCN4CCN(C)CC4)c(OC)cc23)c(Cl)cc1Cl [Bosutinib (SKI-606)] :: 0.44

###

Test system: LOC_OS01G51400-cb002
Assay: thermal shift delta Tm vs DMSO control; higher = stronger stabilization (binding)
Conditions: 12.5 µM; protein concentration 2 µM
# thermal shift delta Tm per entry
Measurement Label: thermal shift delta Tm

1) COc1ccc(-c2ccc3ncc4c(c3c2)n(-c2ccc(N3CCNCC3)c(C(F)(F)F)c2)c(=O)n4C)cn1 :: -0.17 °C
2) O=c1sn(-c2cccc3ccccc23)c(=O)n1Cc1ccccc1 :: 0.24 °C
3) CCN(CC)CCNC(=O)c1c(C)[nH]c(/C=C2\C(=O)Nc3ccc(F)cc32)c1C [Sunitinib Malate] :: 0 °C
4) C#Cc1cccc(Nc2ncnc3cc(OCCOC)c(OCCO)cc23)c1 :: 0.19 °C
5) CC(C)c1c2cc(-c3ccnc(NC4CCC(NC5CCOCC5)CC4)n3)ccc2nn1C (stereo not given) :: 0.39 °C
6) CCCCCCCCCCCCCCCCn1cc[n+](Cc2ccccc2)c1C :: -9.26 °C
7) COc1cc(N2CCC(N(C)C)CC2)ccc1Nc1ncc(Cl)c(Nc2ccccc2P(C)(C)=O)n1 :: 0.25 °C
8) O=C(Nc1c[nH]nc1-c1nc2ccc(CN3CCOCC3)cc2[nH]1)NC1CC1 :: 0.42 °C
9) CCCS(=O)(=O)Nc1ccc(F)c(C(=O)c2c[nH]c3ncc(Cl)cc23)c1F :: 0.32 °C
10) NC1(c2ccc(-c3nc4ccn5c(=O)[nH]nc5c4cc3-c3ccccc3)cc2)CCC1 :: -0.13 °C
11) COc1nccnc1NS(=O)(=O)c1ccc(NC(=O)/C=C/c2ccc([N+](=O)[O-])s2)cc1 [Necrosulfonamide] :: -0.04 °C
12) CC(C)c1cnn2c(NCc3ccccc3)cc(NCCCCCCN)nc12 :: -0.21 °C
13) CC(C)n1nc(-c2ccc3oc(N)nc3c2)c2c(N)ncnc21 :: 0.43 °C
14) CCN(CC)CCCC(C)Nc1nc(C)cc(Nc2ccc3nc(C)cc(N)c3c2)n1 (stereo not given) :: 0.05 °C
15) CN1CC[C@H](c2c(O)cc(O)c3c(=O)cc(-c4ccccc4Cl)oc23)[C@H](O)C1 :: -0.2 °C
16) Cn1c(=O)c(F)c(Nc2ccc(I)cc2F)c2c(=O)n(C[C@@H](O)CO)cnc21 :: 0.57 °C
17) C=CC(=O)Nc1cccc(Sc2nc(Nc3ccc(N4CCN(C)CC4)cc3)ncc2Cl)c1 :: 1.43 °C
18) O=C1NCCc2[nH]c(-c3ccncc3)cc21 :: 0.19 °C
19) CC(C)(C)c1cnc(CSc2cnc(NC(=O)C3CCNCC3)s2)o1 :: 0.67 °C
20) CC(C)NC(=O)COc1cccc(-c2nc(Nc3ccc4[nH]ncc4c3)c3ccccc3n2)c1 :: -0.24 °C

###

System: LOC_OS07G07230-cb001
Test: thermal shift delta Tm vs DMSO control; higher = stronger stabilization (binding)
Details: 12.5 µM; protein concentration 2 µM
Structures can show the parent of a compound that is named as a salt.
Measurement Label: thermal shift delta Tm (°C)

1. O=C(NCc1cccc(O)c1)Nc1nc(-c2ccncc2)cs1 :: 0.35
2. O=C(O)c1cc(O)c2c(c1)[C@@H]([C@H]1c3cc(C(=O)O)cc(O)c3C(=O)c3c(O[C@@H]4O[C@H](CO)[C@@H](O)[C@H](O)[C@H]4O)cccc31)c1cccc(O[C@@H]3O[C@H](CO)[C@@H](O)[C@H](O)[C@H]3O)c1C2=O [Sennoside B] :: -0.03
3. O=C(O)c1ccc(-c2c[nH]c3ncc(-c4ccccc4)cc23)cc1C1CCCC1 :: 0.05
4. Cc1cc2c(F)c(Oc3ncnn4cc(OC[C@@H](C)O)c(C)c34)ccc2[nH]1 :: 0.51
5. O=C(Nc1ccccc1C(=O)NC1CCCCNC1=O)c1cc2ccccc2s1 (stereo unspecified) :: 0.41
6. O=C(NC[C@H](O)CO)c1ccncc1Nc1ccc(I)cc1F :: 0.62
7. CC(C)CCN1c2nc(Nc3cc(F)c(O)c(F)c3)ncc2N(C)C(=O)C1C (stereo unspecified) :: 0.37
8. COc1cc2c3cc1Oc1c(OC)c(OC)cc4c1[C@@H](Cc1ccc(O)c(c1)Oc1ccc(cc1)C[C@@H]3N(C)CC2)N(C)CC4 [Berbamine (dihydrochloride)] :: 0.33
9. Cc1nc(NC(=O)N2CCC[C@H]2C(N)=O)sc1-c1ccnc(C(C)(C)C(F)(F)F)c1 :: 0.13
10. COc1ccc(Oc2cc(NCCC(F)(F)F)c3ncc(-c4ccc(C(=O)NC5CC5)c(C)c4)n3n2)c(F)c1F :: 1.65
11. COc1ccc(-c2ccc3c(N4CCOCC4)nc(N4C[C@@H](C)O[C@@H](C)C4)nc3n2)cc1CO :: 0.35
12. CC#CC(=O)Nc1ccc2ncnc(Nc3cccc(Br)c3)c2c1 :: 0.05
13. Nc1ncc(-c2ccnc(Nc3ccncc3)n2)c(CC2CC2)n1 :: -0.19
14. Cc1cc(Nc2ncnc3ccc(-c4ccc(CNCCS(C)(=O)=O)o4)cc23)ccc1Oc1ccn2ncnc2c1 :: 0.55
15. CNC(=O)c1cccc(-c2ccc3c(N4CCOC[C@@H]4C)nc(N4CCOC[C@@H]4C)nc3n2)c1 :: 0.29
16. Cc1c(C(=O)Nc2ccc(Oc3ccnc4[nH]cc(-c5ccccc5)c34)c(F)c2)c(=O)n(-c2ccc(F)cc2)n1C :: -0.13

###

System: LOC_OS01G60330-cb001
Experiment: thermal shift delta Tm vs DMSO control; higher = stronger stabilization (binding)
Details: 12.5 µM; protein concentration 2 µM
Entries and their thermal shift delta Tm
Measurement Label: thermal shift delta Tm (°C)

1) Cc1c(NC(=O)OC[C@@H]2COCCN2)cn2ncnc(Nc3ccc4c(cnn4Cc4cccc(F)c4)c3)c12 :: 1.47
2) CC(C)c1ccc2oc3nc(N)c(C(=O)O)cc3c(=O)c2c1 :: 3.07
3) C[C@@H]1CN(CC(=O)Nc2ccc3c(c2)Cc2cccc(-c4cc(=O)cc(N5CCOCC5)o4)c2S3)C[C@H](C)O1 :: 0.66
4) O=C(/C=C/c1ccc2ccccc2n1)c1ccncc1 :: 1.35
5) CC(C)NC(=O)COc1cccc(-c2nc(Nc3ccc4[nH]ncc4c3)c3ccccc3n2)c1 :: 12.3
6) CC(C)=CC[C@@H](O)C1=CC(=O)c2c(O)ccc(O)c2C1=O :: -0.94
7) CO[C@H]1C[C@@H]2CC[C@@H](C)[C@@](O)(O2)C(=O)C(=O)N2CCCC[C@H]2C(=O)O[C@H]([C@H](C)C[C@@H]2CC[C@@H](OP(C)(C)=O)[C@H](OC)C2)CC(=O)[C@H](C)/C=C(\C)[C@@H](O)[C@@H](OC)C(=O)[C@H](C)C[C@H](C)/C=C/C=C/C=C/1C :: 1.16
8) CCCCCCCCCCCCCCCCOP(=O)([O-])OCC[N+](C)(C)C :: -3.63
9) N#Cc1ccc(-c2c(-c3ncn[nH]3)sc(N3CCOCC3)c2C#N)c(F)c1 :: 1.05

###

Tested on: LOC_OS05G28520-cb001
Test: thermal shift delta Tm vs DMSO control; higher = stronger stabilization (binding)
Details: 12.5 µM; protein concentration 2 µM
Label rule, in plain words: thermal shift delta Tm of 0.3 °C and up is 1, under 0.3 °C is -1.

1) O=c1ncn2nc(Sc3ccc(F)cc3F)ccc2c1-c1c(Cl)cccc1Cl :: -1
2) O=C(O)c1ccc2c(c1)nc(Nc1cccc(Cl)c1)c1ccncc12 [Silmitasertib (CX-4945)] :: 1
3) CC1(C)C=Cc2c(ccc3c2OC[C@@H](c2ccc(O)cc2O)C3)O1 [Glabridin] :: -1
4) CC[C@H](CO)Nc1nc(NCc2ccccc2)c2ncn(C(C)C)c2n1 [Roscovitine (Seliciclib,CYC202)] :: 1
5) O=C(c1ccc(/C=C/c2n[nH]c3ccccc23)cc1)N1CCNCC1 :: 1
6) O=C(NOCCO)c1ccc2cncn2c1Nc1ccc(I)cc1F :: -1
7) Nc1ccc(C(=O)Nc2cccc(-c3nc(N4CCOCC4)c4oc5ncccc5c4n3)c2)cn1 :: 1
8) CCNc1nc(Nc2cc(F)c(C(=O)N3CCOCC3)cc2OC)ncc1C(F)(F)F :: 1
9) Cc1ccc(C(=O)Nc2ccc(CN3CCN(C)CC3)c(C(F)(F)F)c2)cc1C#Cc1cnc2[nH]ncc2c1 [GZD824 Dimesylate] :: 1
10) CNc1nc(Nc2cn(C(C)(C)C#N)nc2C)ncc1C(F)(F)F :: 1
11) COc1cc2c(Oc3ccc(NC(=O)C4(C(=O)Nc5ccc(F)cc5)CC4)cc3F)ccnc2cc1OCCCN1CCOCC1 :: 1
12) NC(=O)Nc1cc(-c2cccc(F)c2)sc1C(=O)N[C@H]1CCCNC1 :: 1
13) Fc1ccc2[nH]ccc2c1-c1nc(N2CCOCC2)c2sc(CN3CCN(CC4CC4)CC3)cc2n1 :: -1
14) CC(C)(C#N)c1ccc(N2C(=O)OCc3cnc4ccc(-c5cnc6ccccc6c5)cc4c32)cc1 :: 1
15) C=CC(=O)N[C@H]1CCOC[C@H]1Nc1ncc2cc(-c3c(Cl)c(OC)cc(OC)c3Cl)ccc2n1 :: -1
16) CCc1cccc(CC)c1NC(=O)N1Cc2[nH]nc(NC(=O)c3ccc(N4CCN(C)CC4)cc3)c2C1 :: -1
17) CN1CCN(CCOc2cc(OC3CCOCC3)c3c(Nc4c(Cl)ccc5c4OCO5)ncnc3c2)CC1 [Saracatinib (AZD0530)] :: -1
18) NC[C@@](O)(c1ccc(Cl)cc1)c1ccc(-c2cn[nH]c2)cc1 :: 1
19) COc1ccc2c(Oc3ccc(NC(=O)c4c(C)n(CC(C)(C)O)n(-c5ccccc5)c4=O)nc3)ccnc2c1 :: -1
